Entries and their inhibition at 5 µM values follow.
- SYSTEM TESTED: UniProtKB P0DTD1
- ASSAY TEXT: biochemical
- Format: biochemical
- TEST CONDITIONS: 4 h, read-out: Replicate_2
Counter-ions that a name gives are not always drawn.
RECORDED METRIC: inhibition at 5 µM (%)

[[record]]
compound = "Nc1ncnc2c1ncn2[C@@H]1O[C@H](CO)[C@@H](O)[C@H]1O"
system_tested = "UniProtKB P0DTD1"
test_value = 3.55

[[record]]
compound = "NNc1nncc2ccccc12 [Hydralazine hydrochloride]"
system_tested = "UniProtKB P0DTD1"
test_value = 1.31

[[record]]
compound = "COc1cc([C@@H]2c3cc4c(cc3[C@H](O)[C@H]3COC(=O)[C@H]23)OCO4)cc(OC)c1OC"
system_tested = "UniProtKB P0DTD1"
test_value = 4.17

[[record]]
compound = "CC(C)NC(C)Cc1ccc(I)cc1 (stereo not drawn) [Iofetamine hydrochloride]"
system_tested = "UniProtKB P0DTD1"
test_value = 3.79

[[record]]
compound = "C=CCN1CC[C@]23c4c5ccc(O)c4O[C@H]2/C(=N/NC(=O)c2ccccc2)CC[C@@]3(O)[C@H]1C5 [Naloxone benzoylhydrazone]"
system_tested = "UniProtKB P0DTD1"
test_value = 4.95

[[record]]
compound = "NCCc1c[nH]cn1 [Histamine dihydrochloride]"
system_tested = "UniProtKB P0DTD1"
test_value = -1.24

[[record]]
compound = "Oc1ccc(O)cc1 [Hydroquinone]"
system_tested = "UniProtKB P0DTD1"
test_value = -0.951

[[record]]
compound = "Cc1cccc(C)c1N=C1NCCCS1 [Xylazine hydrochloride]"
system_tested = "UniProtKB P0DTD1"
test_value = 2.25

[[record]]
compound = "Cc1cc(N)c2ccccc2[n+]1CCCCCCCCCC[n+]1c(C)cc(N)c2ccccc21 [Dequalinium dichloride]"
system_tested = "UniProtKB P0DTD1"
test_value = 1.41

[[record]]
compound = "O=P1(N(CCCl)CCCl)NCCCO1 (stereo not drawn) [Cyclophosphamide monohydrate]"
system_tested = "UniProtKB P0DTD1"
test_value = 3.01

[[record]]
compound = "c1ccc2c(c1)[I+]c1ccccc1-2 [Diphenyleneiodonium chloride]"
system_tested = "UniProtKB P0DTD1"
test_value = 2.49

[[record]]
compound = "Nc1nc2ccc(Cl)cc2c2nc(-c3ccco3)nn12"
system_tested = "UniProtKB P0DTD1"
test_value = 3.81

[[record]]
compound = "O=C(Nc1ccc([N+](=O)[O-])cc1Cl)c1cc(Cl)ccc1O [Niclosamide]"
system_tested = "UniProtKB P0DTD1"
test_value = 4

[[record]]
compound = "CC(C)NCC(O)COc1ccc(CCOCC2CC2)cc1 (stereo not drawn) [Betaxolol hydrochloride]"
system_tested = "UniProtKB P0DTD1"
test_value = 3.87

[[record]]
compound = "O=C1Cc2c([nH]c3ccc(Br)cc23)-c2ccccc2N1"
system_tested = "UniProtKB P0DTD1"
test_value = 3.46

[[record]]
compound = "CC[C@@H](CO)NC(=O)[C@@H]1C=C2c3cccc4[nH]cc(c34)C[C@H]2N(C)C1 [Methylergonovine maleate]"
system_tested = "UniProtKB P0DTD1"
test_value = 0.625

[[record]]
compound = "CCCCNc1cc(C(=O)O)cc(S(N)(=O)=O)c1Oc1ccccc1 [Bumetanide]"
system_tested = "UniProtKB P0DTD1"
test_value = 1.11

[[record]]
compound = "CC(NC(C)(C)C)C(=O)c1cccc(Cl)c1 (stereo not drawn) [Bupropion hydrochloride]"
system_tested = "UniProtKB P0DTD1"
test_value = 2.67


###

- SYSTEM TESTED: SARS-CoV-2 3CLpro (Severe acute respiratory syndrome coronavirus 2, UniProt P0DTD1)
- ASSAY TEXT: biochemical
- Format: biochemical
- TEST CONDITIONS: 4 h, sheet LOPAC_screen_w_protease; primary screen of LOPAC1280 at 5 µM with protease; replicate 2; read-out: Replicate_2
Where a name gives a salt, the structure may show the parent alone.
RECORDED METRIC: inhibition at 5 µM (%)

[[record]]
compound = "O=C(O)c1cc(O)c2ccc(Cl)cc2n1"
unit_label = "%"
test_value = 2.98

[[record]]
compound = "CC1=C(/C=C/C(C)=C/C=C/C(C)=C/C=C/C=C(C)/C=C/C=C(C)/C=C/C2=C(C)C(=O)[C@@H](O)CC2(C)C)C(C)(C)C[C@H](O)C1=O"
unit_label = "%"
test_value = 4.22

[[record]]
compound = "C=CCN1CC[C@]23c4c5ccc(O)c4O[C@H]2C(=O)CC[C@@]3(O)[C@H]1C5 [Naloxone hydrochloride]"
unit_label = "%"
test_value = 4.09

[[record]]
compound = "O=C1NC(c2cccc([N+](=O)[O-])c2)=CCN1c1ccccc1O"
unit_label = "%"
test_value = 3.25


###

- SYSTEM TESTED: SARS-CoV-2 3CLpro (Severe acute respiratory syndrome coronavirus 2)
- ASSAY TEXT: biochemical
- Type: biochemical
- TEST CONDITIONS: 4 h, sheet LOPAC_screen_w_protease; primary screen with protease, replicate 2; read-out: Replicate_2
Counter-ions that a name gives are not always drawn.
Each entry below carries its reported inhibition at 5 µM.
RECORDED METRIC: inhibition at 5 µM

[[record]]
compound = "CO/N=C(\\C(=O)N[C@@H]1C(=O)N2C(C(=O)O)=C(COC(C)=O)CS[C@H]12)c1csc(N)n1 [Cefotaxime sodium]"
test_value = "3.3%"

[[record]]
compound = "O=C1CCc2cc(OCCCCc3nnnn3C3CCCCC3)ccc2N1"
test_value = "2.42%"

[[record]]
compound = "CN(C(=O)CCCOc1ccc2[nH]c(=O)ccc2c1)C1CCCCC1 [Cilostamide]"
test_value = "3.35%"

[[record]]
compound = "CNC(=O)[C@H]1O[C@@H](n2cnc3c(NCc4cccc(I)c4)ncnc32)[C@H](O)[C@@H]1O"
test_value = "2.06%"

[[record]]
compound = "CN(C)C(=O)C(CCN1CCC(O)(c2ccc(Cl)cc2)CC1)(c1ccccc1)c1ccccc1 [Loperamide hydrochloride]"
test_value = "0.237%"

[[record]]
compound = "N=C(N)c1ccccc1 [Benzamidine hydrochloride]"
test_value = "3.28%"

[[record]]
compound = "COc1ccc2[nH]cc(CCNC(C)=O)c2c1"
test_value = "1.38%"

[[record]]
compound = "CC(C)(Oc1ccc(C2CC2(Cl)Cl)cc1)C(=O)O (centres unmarked) [Ciprofibrate]"
test_value = "2.6%"

[[record]]
compound = "OC[C@H]1O[C@@H](n2cnc3c(NC4CCCC4)ncnc32)[C@H](O)[C@@H]1O"
test_value = "2.67%"

[[record]]
compound = "c1ccc2c(c1)CCCC2C1=NCCN1 (centres unmarked) [Tetrahydrozoline hydrochloride]"
test_value = "2.65%"

[[record]]
compound = "Cc1c2ccncc2c(C)c2c1[nH]c1ccccc12"
test_value = "-0.147%"

[[record]]
compound = "O=C1NCC2(CCN(CCc3ccccc3)CC2)O1 [Fenspiride hydrochloride]"
test_value = "0.843%"

[[record]]
compound = "NC(=O)OCC(COC(N)=O)c1ccccc1 [Felbamate]"
test_value = "0.843%"

[[record]]
compound = "Oc1ccc(-c2nc(-c3ccncc3)c(-c3ccc(F)cc3)[nH]2)cc1"
test_value = "3.6%"

[[record]]
compound = "C[C@H](O)C(=O)C1=Nc2c(nc(N)[nH]c2=O)NC1 [Sepiapterin]"
test_value = "2.55%"

[[record]]
compound = "NC(=Nc1ccccc1)NC(=O)c1nc(Cl)c(N)nc1N [Phenamil methanesulfonate]"
test_value = "2.81%"

[[record]]
compound = "OCCN1CCN(CC/C=C2/c3ccccc3Sc3ccc(C(F)(F)F)cc32)CC1 [cis-(Z)-Flupenthixol dihydrochloride]"
test_value = "1.63%"

[[record]]
compound = "NS(=O)(=O)c1cc2c(cc1Cl)NCNS2(=O)=O [Hydrochlorothiazide]"
test_value = "0.799%"

[[record]]
compound = "CC[N+](C)(C)c1cccc(O)c1 [Edrophonium chloride]"
test_value = "-0.704%"

[[record]]
compound = "COc1ccc(CN(CCN(C)C)c2ccccn2)cc1 [Pyrilamine maleate]"
test_value = "3.63%"

[[record]]
compound = "CC(C)[C@H](CO)Nc1nc(Nc2cccc(Cl)c2)c2ncn(C(C)C)c2n1"
test_value = "2.06%"

[[record]]
compound = "CCCCCCC(C)(C)c1ccc([C@@H]2C[C@H](O)CC[C@H]2CCCO)c(O)c1"
test_value = "2.71%"

[[record]]
compound = "CC1=C(C)C(=O)C(CCCCC#CCCCC#CCO)=C(C)C1=O"
test_value = "1.43%"

[[record]]
compound = "N=C(N)SCCc1cnc[nH]1 [Imetit dihydrobromide]"
test_value = "3.38%"

[[record]]
compound = "O=C(O)C1=CCCNC1 [Guvacine hydrochloride]"
test_value = "0.255%"

[[record]]
compound = "NCCCCCCCCCCN"
test_value = "1.71%"

[[record]]
compound = "CC(C)COC(=O)OCN1C(=O)CN(CCN2CC(=O)N(COC(=O)OCC(C)C)C(=O)C2)CC1=O"
test_value = "1.66%"

[[record]]
compound = "CN1CCN(C2=Nc3cc(Cl)ccc3Nc3ccccc32)CC1"
test_value = "2.3%"

[[record]]
compound = "CN1C(C)(C)CCCC1(C)C [Pempidine tartrate]"
test_value = "2.11%"

[[record]]
compound = "C#C[C@]1(O)CC[C@H]2[C@@H]3CCC4=Cc5oncc5C[C@]4(C)[C@H]3CC[C@@]21C"
test_value = "0.911%"

[[record]]
compound = "CC(CN(C)C)CN1c2ccccc2CCc2ccccc21 (centres unmarked) [Trimipramine maleate]"
test_value = "1.55%"

[[record]]
compound = "NC12CC3CC(CC(C3)C1)C2 [Amantadine hydrochloride]"
test_value = "3.05%"

[[record]]
compound = "CCCCc1ccc(C(=O)O)nc1"
test_value = "1.8%"

[[record]]
compound = "N=c1ccn2c(n1)O[C@H]1[C@H](O)[C@@H](CO)O[C@H]12 [Ancitabine hydrochloride]"
test_value = "2.49%"

[[record]]
compound = "COc1ccc2c(c1)c(CC(=O)N1CCOCC1)c(C)n2C(=O)c1ccc(Cl)cc1 [Indomethacin morpholinylamide]"
test_value = "2.53%"

[[record]]
compound = "CN1CCN(CCCN2c3ccccc3Sc3ccc(Cl)cc32)CC1 [Prochlorperazine dimaleate]"
test_value = "0.439%"

[[record]]
compound = "Nc1nc2[nH]c(=O)cnc2c(=O)[nH]1"
test_value = "1.11%"

[[record]]
compound = "Cn1c(=O)c2c(ncn2C)n(C)c1=O"
test_value = "2.71%"

